Target: Steryl-sulfatase (Homo sapiens) (UniProt P08842)
Experiment: Inhibition of steroid sulfatase in human JEG3 cell lysates assessed as residual activity at 10 uM using [3H] E1S as substrate after 1 hr by scintillation spectrometry analysis relative to control; values are per cent of control
Details: Lysate
So basically: residual activity at 20% or higher? That is true (1). Lower than 20%? That is false (0).

{"structure smiles": "NS(=O)(=O)Oc1ccc(NC(=O)N2CCN(c3ccc(F)cc3)CC2)cc1", "label class": "true (1)"}
{"structure smiles": "CCCCCCCCCCN1CCN(C(=O)Nc2ccc(OS(N)(=O)=O)c(F)c2)CC1", "label class": "false (0)"}
{"structure smiles": "NS(=O)(=O)Oc1ccc(NC(=O)N2CCN(c3ccc(Cl)cc3)CC2)cc1Cl", "label class": "true (1)"}
{"structure smiles": "COc1ccc(-c2ccnc(N3CCN(C(=O)Nc4ccc(OS(N)(=O)=O)cc4)CC3)n2)cc1", "label class": "false (0)"}

Exercise: Determine whether this compound has residual activity no lower than 20%: CCCCCCCCCCN1CCN(C(=O)Nc2ccc(OS(N)(=O)=O)cc2F)CC1
Key: false (0)

Exercise: Record NS(=O)(=O)Oc1ccc(NC(=O)N2CCN(c3nccc(-c4cc5ccccc5o4)n3)CC2)cc1 ; criterion: residual activity no lower than 20%. Met?
Key: false (0)

Exercise: hey, is residual activity for this one >= 20%? NS(=O)(=O)Oc1ccc(NC(=O)N2CCN(c3nccc(-c4cccc(C(F)(F)F)c4)n3)CC2)cc1
Key: true (1)

Exercise: Is reported residual activity greater than or equal to 20% here: CCCCCCCCN1CCN(C(=O)Nc2ccc(OS(N)(=O)=O)c(Cl)c2)CC1
Key: false (0)

Exercise: Textbook exercise: given the entry NS(=O)(=O)Oc1ccc(NC(=O)N2CCN(c3ccc(Cl)cc3)CC2)cc1F , state whether its residual activity is greater than or equal to 20%.
Key: false (0)

====

Each entry below lists one item and its recorded IC50 value.
Target: UniProtKB P08842
Sequence (P08842 whole entry): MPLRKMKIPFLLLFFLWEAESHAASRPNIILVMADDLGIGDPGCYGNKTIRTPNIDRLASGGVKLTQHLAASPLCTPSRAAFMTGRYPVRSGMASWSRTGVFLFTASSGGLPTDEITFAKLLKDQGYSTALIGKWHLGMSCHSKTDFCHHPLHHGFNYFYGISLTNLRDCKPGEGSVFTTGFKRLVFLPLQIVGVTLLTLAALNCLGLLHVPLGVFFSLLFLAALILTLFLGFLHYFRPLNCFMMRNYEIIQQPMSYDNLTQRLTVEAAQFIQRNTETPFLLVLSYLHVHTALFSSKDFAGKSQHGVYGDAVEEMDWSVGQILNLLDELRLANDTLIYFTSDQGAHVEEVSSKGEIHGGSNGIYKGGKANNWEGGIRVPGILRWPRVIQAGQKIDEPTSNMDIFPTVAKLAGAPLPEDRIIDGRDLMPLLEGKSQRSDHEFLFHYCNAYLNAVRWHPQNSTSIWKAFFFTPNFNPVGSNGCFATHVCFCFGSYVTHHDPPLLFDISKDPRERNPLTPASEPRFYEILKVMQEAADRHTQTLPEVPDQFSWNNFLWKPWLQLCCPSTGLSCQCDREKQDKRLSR
Assay: Inhibition of steroid sulfatase in human JEG3 cell using [3H] E1S as substrate after 1 hr by scintillation spectrometry analysis
Give the value, in units of µM, as a plain number.

Worked examples, 2 compounds total:
{"structure smiles": "CCCCCCCCN1CCN(C(=O)Nc2ccc(OS(N)(=O)=O)c(Cl)c2)CC1", "IC50 [µM]": 0.0189}
{"structure smiles": "CCCCCCCCN1CCN(C(=O)Nc2ccc(OS(N)(=O)=O)cc2)CC1", "IC50 [µM]": 0.0437}

We next turn to a different compound, shown below.
Exercise: Given the compound Cc1cccc(N2CCN(C(=O)Nc3ccc(OS(N)(=O)=O)c(Cl)c3)CC2)c1C , write its reported IC50.
Key: 0.017
